Reference for the values: ChEMBL document CHEMBL1137074

System: Mus musculus
experimentalDetails: Ability to induce mouse macrophage IL-6 assay in peritoneal exudate cells harvested by […] from C57BI/6 mice.
Assay type: functional, cell-based
pEC50 reference
Keep in mind that pEC50 stands for -log10 of concentration in molar terms.

Please provide the recorded pEC50 for C[C@]12C=CC(=O)C=C1CCC1[C@@H]2[C@@H](O)C[C@@]2(C)[C@H]1CC[C@]2(O)C(=O)CO (single isomer, unassigned) [PREDNISOLONE] , tested on Mus musculus.
8.24

Report pEC50 for C[C@]12Cc3cnn(-c4ccc(F)cc4)c3C=C1CCC[C@@H]2[C@@H](O)c1ccc(Cl)cc1 tested on Mus musculus.
7.22

What pEC50 appears in the records for this compound with Mus musculus? C[C@]12Cc3cnn(-c4ccc(F)cc4)c3C=C1CCC[C@@H]2[C@@H](O)c1ccccc1
6.96

Request body: readout pEC50, system Mus musculus, query C=CCC[C@H](O)[C@H]1CCCC2=Cc3c(cnn3-c3ccc(F)cc3)C[C@@]21C . Return the value.
8.24

Lookup: pEC50 / Mus musculus / C[C@]12Cc3cnn(-c4ccc(F)cc4)c3C=C1CCC[C@@H]2[C@@H](O)c1ccc(O)cc1
7.11

Next:
Any idea what pEC50 came out for C[C@]12Cc3cnn(-c4ccc(F)cc4)c3C=C1CCC[C@@H]2[C@@H](O)Cc1ccccc1 on Mus musculus?
7.61

Tell me reported pEC50 for C[C@]12Cc3cnn(-c4ccc(F)cc4)c3C=C1CCC[C@@H]2[C@](C)(O)c1ccc(F)cc1 , tested with Mus musculus.
8.85

API: value(readout= pEC50, system= Mus musculus, query= C=CC[C@H](O)[C@H]1CCCC2=Cc3c(cnn3-c3ccc(F)cc3)C[C@@]21C )
7.44

Recall the recorded pEC50 for Cc1cc([C@H](O)[C@H]2CCCC3=Cc4c(cnn4-c4ccc(F)cc4)C[C@@]32C)ccc1F with Mus musculus and state it.
7.27

So what pEC50 did CC(C)(O)[C@H]1CCCC2=Cc3c(cnn3-c3ccc(F)cc3)C[C@@]21C get with Mus musculus?
7.82

Request - read-out pEC50 | tested on Mus musculus | compound COc1cc([C@H](O)[C@H]2CCCC3=Cc4c(cnn4-c4ccc(F)cc4)C[C@@]32C)cc(F)c1F
7.82

Give recorded pEC50 with Mus musculus for the following compound: COc1cc([C@H](O)[C@H]2CCCC3=Cc4c(cnn4-c4ccc(F)cc4)C[C@@]32C)ccc1F
7.69

For the record Cc1ccc(C[C@H](O)[C@H]2CCCC3=Cc4c(cnn4-c4ccc(F)cc4)C[C@@]32C)cc1 , what value of pEC50 is listed for Mus musculus?
7.38

Given the entry C[C@]12Cc3cnn(-c4ccc(F)cc4)c3C=C1CCC[C@@H]2[C@@H](O)c1cccc(O)c1 , what pEC50 was observed with Mus musculus?
6.75

Item C[C@]12Cc3cnn(-c4ccc(F)cc4)c3C=C1CCC[C@@H]2[C@](C)(O)c1ccsc1 with Mus musculus - pEC50?
8.28

I'm curious: which pEC50 was measured for C[C@]12Cc3cnn(-c4ccc(F)cc4)c3C=C1CCC[C@@H]2[C@@H](O)Cc1ccc(F)cc1 tested on Mus musculus?
8.43
